- method notes: water solubility
- Format: physicochemical
- condition label: water
Where a name gives a salt, the structure may show the parent alone.
parameter measured: solubility

*Q* Quickly give me recorded solubility for CN(C)CCNC(=O)/C=C/C(=O)N1Cc2ccccc2Oc2ccc(Cl)cc21 [Example 8, monohydrochloride]
*A* > 80 mg/mL

###

- method notes: water solubility
- Format: physicochemical
- condition label: water; comparison compound
parameter measured: solubility (µg/mL)
State just the number; it will be interpreted in µg/mL.

*Q* Quickly give me recorded solubility for CCS(=O)(=O)CCC(=O)NNC(=O)N1Cc2ccccc2Oc2ccc(Cl)cc21 [reference compound]
*A* 80
